# MIC per entry
- Test system: Bacillus subtilis
- ASSAY NAME: Antibacterial activity against Bacillus subtilis after 12 to 14 hrs
- Assay type: functional
PROPERTY: MIC

COc1ccc2c(c1)c1cc[n+]([O-])c3ccc(=O)n2c13    > 64 µg/mL
O=C1CCC(=O)n2ccc3cccc1c32    > 64 µg/mL
O=C1CCC(O)c2cc3ccccc3n21 (stereo not given)    16 µg/mL
CCc1cc2nccc3c4cc(OC)ccc4n(c1=O)c23    > 64 µg/mL
O=C1CCCC2Cc3ccccc3N12 (stereo not given)    > 64 µg/mL

====

- Tested on: Bacillus cereus
- ASSAY NAME: Antibacterial activity against Bacillus cereus after 12 to 14 hrs
- Type: functional
PROPERTY: MIC

COc1ccc2[nH]c3c(C=O)nccc3c2c1    32 µg/mL
COc1ccc2[nH]c3cnccc3c2c1    > 64 µg/mL
COc1ccc2c(c1)c1ccnc3c1n2CCC3    32 µg/mL
COc1ccc2c(c1)c1ccnc3c1n2CN(Cc1ccccc1)C3    64 µg/mL
O=C1C=CC(=O)n2c1cc1ccccc12    4 µg/mL
O=C1CCCc2cc3ccccc3n21    > 64 µg/mL
O=C1CCC2(SCCS2)c2cc3ccccc3n21    > 64 µg/mL
COc1ccc2c(c1)c1c3n2C(=O)CCC3NCC1 (stereo unspecified)    > 64 µg/mL
O=C1CCCC2Cc3ccccc3N12 (stereo unspecified)    > 64 µg/mL
COc1ccc2[nH]c3c(C(OC)OC)nccc3c2c1    > 64 µg/mL
CO/N=C(\C(=O)N[C@@H]1C(=O)N2C(C(=O)[O-])=C(COC(C)=O)CS[C@H]12)c1csc(N)n1.[Na+] [CEFOTAXIME SODIUM]    16 µg/mL

====

- ASSAY NAME: Cytotoxicity against human A549 cells assessed as cell viability at 4 ug/ml after 48 hrs by MTT assay relative to control
- Format: cell-based
- CONDITION INFO: read-out: Activity
PROPERTY: viability at 48 h, 4 ug/ml (%)

O=C1C=CC(=O)n2c1cc1ccccc12    103

====

- ASSAY NAME: Cytotoxicity against human HeLa cells assessed as cell viability at 4 ug/ml after 48 hrs by MTT assay relative to control
- Format: cell-based
- CONDITION INFO: read-out: Activity
PROPERTY: viability at 48 h, 4 ug/ml

O=C1C=CC(=O)n2c1cc1ccccc12    91%

====

- ASSAY NAME: Selectivity index, ratio of IC50 for human A549 cells to MIC for Bacillus cereus
- Assay type: toxicity
- CONDITION INFO: read-out: Selectivity Index
PROPERTY: selectivity ratio

O=C1C=CC(=O)n2c1cc1ccccc12    4.1

====

- ASSAY NAME: Cytotoxicity against human SGC7901 cells assessed as cell viability at 4 ug/ml after 48 hrs by MTT assay relative to control
- Type: cell-based, SGC-7901
- CONDITION INFO: read-out: Activity
PROPERTY: viability at 48 h, 4 ug/ml (%)

O=C1C=CC(=O)n2c1cc1ccccc12    96

====

- System: Bacillus subtilis
- ASSAY NAME: Antibacterial activity against Bacillus subtilis after 12 to 14 hrs
- Assay type: functional
Below, each of the molecules is paired with its reported MIC value.
PROPERTY: MIC (µg/mL)

O=C1CCC(=O)n2c1cc1ccccc12    4
COc1ccc2c(c1)c1ccnc3c1n2CN(Cc1ccccc1)C3    64
C[C@@H]1O[C@@H]1P(=O)([O-])[O-].[Na+].[Na+] [PHOSPHOMYCIN DISODIUM]    2
